Source: PubChem BioAssay (NCI)

- System: TK-10 renal
- PROCEDURE DETAILS: NCI tumour cell line growth inhibition, 48 h
In this section, each of the compounds is paired with its reported TGI.

Examples from the recorded data:
Output measured TGI for this item: Cc1ccc(OCC2CO2)c(Br)c1 (stereo not drawn)
> 100 µM

Output measured TGI for this item: CC(=O)OCc1c(O)c2c([nH]c1=O)CCc1ccccc1-2
186 µM

More entries:
Output measured TGI for this item: CCCCSC1=N/C(=C\c2ccccc2O)C(=O)N1
> 100 µM

----------
- System: DU-145 prostate
- PROCEDURE DETAILS: NCI tumour cell line growth inhibition, 48 h
OBSERVATION TYPE: TGI

Recall the reported TGI of Nn1c(CCCCCCCCc2nnc(-c3c(O)ccc4ccccc34)n2N)nnc1-c1c(O)ccc2ccccc12 on DU-145 prostate and write it down.
> 100 µM

Recall the reported TGI of Cc1cn(C2CC(n3cc(Cn4ccc(=O)[nH]c4=O)nn3)C(CO)O2)c(=O)[nH]c1=O (stereo not drawn) on DU-145 prostate and write it down.
> 100 µM

# ---- query molecule ----
Recall the reported TGI of O=[N+]([O-])c1ccc(-c2csc(N=Nc3c(O)[nH]c4ccccc34)n2)cc1 on DU-145 prostate and write it down.
> 100 µM

----------
- Tested on: U251 CNS
- PROCEDURE DETAILS: NCI tumour cell line growth inhibition, 48 h
OBSERVATION TYPE: TGI

Examples from the recorded data:
Output measured TGI for this item: FC1(F)ON2CCc3ccccc3C2[C@H]1c1ccccc1 (stereo not given in full)
> 100 µM

Output measured TGI for this item: CC(C)(C)OC(=O)NCC(CNC(=O)OC(C)(C)C)C(N)=O
> 100 µM

Output measured TGI for this item: O=[N+]([O-])c1ccc(-c2csc(N=Nc3c(O)[nH]c4ccccc34)n2)cc1
> 100 µM

Output measured TGI for this item: NC(=O)c1cc(N2CC2)c([N+](=O)[O-])cc1[N+](=O)[O-]
> 200 µM

# ---- query compound ----
Output measured TGI for this item: CC(Oc1ccc2c(-c3ccc(Cl)cc3)cc(=O)oc2c1)C(=O)O (stereo not given)
> 100 µM

----------
- Test system: SR leukemia
- PROCEDURE DETAILS: NCI tumour cell line growth inhibition, 48 h
In this section, each of the compounds is paired with its reported TGI.

Output measured TGI for this item: COc1ccc(CCN2CCN(CCCc3ccccc3)CC2)cc1
> 100 µM

Output measured TGI for this item: Cc1nc(-c2ccccc2)cn2c1nc1ccccc12
> 100 µM

# ---- query compound ----
Output measured TGI for this item: CC1=CCC2CC1C(C(=O)c1c[nH]c3ccccc13)=NC2(C)C (stereo not drawn)
> 100 µM

----------
In this section, each of the compounds is paired with its reported TGI.
- System: NCI-H226 lung
- PROCEDURE DETAILS: NCI tumour cell line growth inhibition, 48 h

Examples from the recorded data:
Output measured TGI for this item: COC(NC(=O)Nc1ccc(C)cc1)(C(F)(F)F)C(F)(F)F
> 100 µM

Output measured TGI for this item: O=S1(=O)c2ccccc2N(O)C2=NCCN21
> 100 µM

# ---- query compound ----
Output measured TGI for this item: O=c1[nH]c(Nc2ccc(Br)c(C(F)(F)F)c2)nc2nc[nH]c12
> 100 µM
